The measured values listed here are drawn from the supplement of paper PMC7877785.

# assay.protocol: self-splicing fitness, log relative to wild type (ln ratio); higher = more splicing; Tetrahymena group I intron in knt gene, E. coli kanamycin selection, DiMSum; sequences stand for … in CUCUCU…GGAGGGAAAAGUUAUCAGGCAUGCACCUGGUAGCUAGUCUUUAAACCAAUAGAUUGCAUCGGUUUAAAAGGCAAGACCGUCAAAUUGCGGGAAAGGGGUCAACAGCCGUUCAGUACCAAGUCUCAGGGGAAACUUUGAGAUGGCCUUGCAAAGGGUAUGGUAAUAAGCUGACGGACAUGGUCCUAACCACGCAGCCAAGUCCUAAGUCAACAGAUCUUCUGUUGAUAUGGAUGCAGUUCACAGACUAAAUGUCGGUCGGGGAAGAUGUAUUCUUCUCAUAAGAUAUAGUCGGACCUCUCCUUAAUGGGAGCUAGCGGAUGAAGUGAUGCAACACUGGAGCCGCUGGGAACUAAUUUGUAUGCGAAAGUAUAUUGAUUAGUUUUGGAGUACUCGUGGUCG;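 further: selection with 25 µg/mL kanamycin versus none on LB agar overnight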
# details: 30 °C
Lab note: anything with self-splicing fitness (ln) at or over -3 counts as 1.0; the rest go in 0.0.

Answered examples (4):
Prompt line: Is self-splicing fitness (ln) at least -3? Consider CUCCAGCAAUAUUACGCCGU
Response line: 0.0

Prompt line: Is self-splicing fitness (ln) at least -3? Consider UAACAGCAAUAUUACGCAGC
Response line: 0.0

Prompt line: Is self-splicing fitness (ln) at least -3? Consider UCCUAGCAAUAUUACGCCGA
Response line: 1.0

Prompt line: Is self-splicing fitness (ln) at least -3? Consider GGGGAGCAAUAUUACGUGAG
Response line: 1.0

Next:
Prompt line: Is self-splicing fitness (ln) at least -3? Consider CGGGAGCAAUAUUACGUGUA
Response line: 0.0

Prompt line: Is self-splicing fitness (ln) at least -3? Consider AGCUAGCAAUAUUACGCUUC
Response line: 0.0

Prompt line: Is self-splicing fitness (ln) at least -3? Consider GCUAAGCAAUAUUACGAUAU
Response line: 1.0
